target: Receptor-type tyrosine-protein kinase FLT3 (Homo sapiens, UniProt P36888, ITD)
Sequence (P36888 whole entry, looked up, change not shown): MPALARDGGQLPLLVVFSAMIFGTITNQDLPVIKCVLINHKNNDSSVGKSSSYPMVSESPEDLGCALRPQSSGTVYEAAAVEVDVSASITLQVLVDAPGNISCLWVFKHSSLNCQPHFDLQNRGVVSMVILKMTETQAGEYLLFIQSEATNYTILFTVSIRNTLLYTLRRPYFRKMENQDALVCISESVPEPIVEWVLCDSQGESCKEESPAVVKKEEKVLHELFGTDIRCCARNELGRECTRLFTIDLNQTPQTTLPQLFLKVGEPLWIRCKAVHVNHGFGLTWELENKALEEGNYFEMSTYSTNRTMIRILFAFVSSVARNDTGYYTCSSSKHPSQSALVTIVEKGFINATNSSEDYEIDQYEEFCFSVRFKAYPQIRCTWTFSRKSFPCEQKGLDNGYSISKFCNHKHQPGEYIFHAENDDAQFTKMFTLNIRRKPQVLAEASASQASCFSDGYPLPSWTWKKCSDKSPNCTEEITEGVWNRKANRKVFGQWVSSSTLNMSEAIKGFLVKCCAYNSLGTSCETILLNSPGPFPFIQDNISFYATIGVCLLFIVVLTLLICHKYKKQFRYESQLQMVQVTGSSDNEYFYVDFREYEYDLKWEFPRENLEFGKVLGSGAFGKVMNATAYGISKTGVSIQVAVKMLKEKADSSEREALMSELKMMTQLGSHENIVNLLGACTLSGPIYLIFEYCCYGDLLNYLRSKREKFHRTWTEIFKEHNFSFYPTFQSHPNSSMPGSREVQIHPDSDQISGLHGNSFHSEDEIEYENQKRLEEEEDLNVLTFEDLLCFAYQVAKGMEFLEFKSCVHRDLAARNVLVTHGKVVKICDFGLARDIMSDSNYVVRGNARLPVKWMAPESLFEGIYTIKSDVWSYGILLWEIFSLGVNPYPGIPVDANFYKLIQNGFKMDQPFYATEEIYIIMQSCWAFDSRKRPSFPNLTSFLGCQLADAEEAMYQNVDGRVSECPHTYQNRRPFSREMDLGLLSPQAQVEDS
REPORTED_PROPERTY: IC50 (nM)

1) O=S1(=O)CCc2c(c(-c3c[nH]nc3C(F)(F)F)nc3ccc4[nH]ncc4c23)C1
799
2) N#CC1CCc2c(c(-c3c[nH]nc3C(F)(F)F)nc3c(F)cc4[nH]ncc4c23)C1 (stereo not drawn)
86
3) Cc1n[nH]c2ccc3nc(-c4c[nH]nc4C(F)(F)F)c4c(c3c12)CCC(C#N)C4 (stereo not drawn)
15
4) FC(F)(F)c1n[nH]cc1-c1nc2ccc3[nH]ncc3c2c2c1CCCCC2
3
5) Fc1n[nH]c2ccc3nc(-c4c[nH]nc4C(F)(F)F)c4c(c3c12)CCCC4
31
6) CC(=O)NC1CCc2c(c(-c3c[nH]nc3C(F)(F)F)nc3ccc4[nH]ncc4c23)C1 (stereo not drawn)
20
7) Cc1noc(C)c1-c1nc2ccc3[nH]ncc3c2c2c1CCCC2
2020
8) c1n[nH]cc1-c1nc2ccc3[nH]ncc3c2c2c1CCCC2
90

1. CCc1c(C)c(-c2c[nH]nc2C(F)(F)F)nc2ccc3[nH]ncc3c12
2. c1[nH]nnc1-c1nc2ccc3[nH]ncc3c2c2c1CCCC2
Data request: Please tell me which of the two, 1 or 2 , has the higher reported IC50 value. Mark your selection by writing its label.
Data returned: 2
